Values were extracted from PubChem BioAssay (NCI).

test system: RXF 393 renal; assay: NCI-60 one-dose screen, 48 h (100 = growth as untreated, 0 = no growth, -100 = all killed); conditions: 10 µM unless noted
This is part of a sample that, as a whole, favours compounds with a hit. Of some 83,000 tested, about 20% had one in any assay.
Use criterion met when the recorded growth is no lower than 40%; use criterion not met when it is lower.

stdin: In plain terms: is recorded growth at least 40% for O=C1N/C(=N\c2nccs2)S/C1=C\C=C/c1ccccc1 ?
stdout: criterion met

stdin: In plain terms: is recorded growth at least 40% for C#CCOc1ccc(/C=N/Nc2nc(-c3ccc(Cl)cc3)cs2)cc1OC ?
stdout: criterion not met

stdin: In plain terms: is recorded growth at least 40% for CC12CC[C@@H]3[C@]4(C)COC(c5cn[nH]c5-c5ccc(Br)cc5)O[C@@H]4CC[C@@]3(C)[C@@H]1CC(C1=CCOC1=O)O2 (stereo partly drawn) ?
stdout: criterion not met

stdin: In plain terms: is recorded growth at least 40% for CN(C)c1nc(NCCNS(=O)(=O)c2ccc(C3=Nc4c(N)nc(N)nc4NC(c4ccc(F)cc4)C3)cc2)nc(Nc2ccc(F)cc2)n1 (stereo not drawn) ?
stdout: criterion not met

stdin: In plain terms: is recorded growth at least 40% for O=C(Cn1c(/C=C/c2ccccc2)nc2ccccc2c1=O)Nc1ccccc1 ?
stdout: criterion not met

stdin: In plain terms: is recorded growth at least 40% for Cn1cc(-c2cc3nc(-c4cn(C)c5ncc(Br)cc45)cc(N)n3n2)c2ccccc21 ?
stdout: criterion not met

stdin: In plain terms: is recorded growth at least 40% for CCCSc1nc(NCCc2c[nH]c3ccccc23)c(C#N)c(-c2ccccc2)n1 ?
stdout: criterion met

stdin: In plain terms: is recorded growth at least 40% for O=C(CN1C(=O)/C(=C/c2ccccc2Cl)SC1=S)N1CCOCC1 ?
stdout: criterion met

stdin: In plain terms: is recorded growth at least 40% for CN1CCN(Cc2ccc(C(=O)Nc3cccc(C#Cc4cccc5[nH]nc(N)c45)c3)cc2C(F)(F)F)CC1 ?
stdout: criterion not met

stdin: In plain terms: is recorded growth at least 40% for COc1cc(-c2ccc(/C=N/NC(=O)c3[nH]c4ccc(Br)cc4c3-c3ccccc3)s2)cc(OC)c1OC ?
stdout: criterion met

stdin: In plain terms: is recorded growth at least 40% for CN1CCN(/C(=N\c2sc(-c3ccccc3)nc2-c2ccccc2)c2ccccc2)CC1 ?
stdout: criterion met

stdin: In plain terms: is recorded growth at least 40% for OCC1(CCCc2ccccc2)CCCN(c2nccc3ccccc23)C1 (stereo not drawn) ?
stdout: criterion met

stdin: In plain terms: is recorded growth at least 40% for CC(=O)Oc1ccccc1C(=O)[Se]C(=NC1CCCCC1)NC1CCCCC1 ?
stdout: criterion not met

---

The following compounds are listed with their measured growth values.
Tested on: SK-OV-3 ovarian
Assay: NCI-60 one-dose screen, 48 h (100 = growth as untreated, 0 = no growth, -100 = all killed)
Conditions: 10 µM unless noted
Method: Growth inhibition of the SK-OV-3 human tumor cell line is measured as a screen for anti-cancer activity. Cells are grown in 96 well plates and exposed to the test compound for 48 hours. Compounds are tested at a single concentration, which is 10^-5 M for most compounds. The reported endpoint is percent growth (GI% or GIPRCNT), where numbers from 0 - 100% represent growth inhibition, and numbers from -100% - 0 represent cell death. For example, a value of 40 represents 60% growth inhibition. […]
Compounds without any hit were thinned out: in the full panel of roughly 83,000, 20% have a hit.
I only need the number, in %, no unit after it.

Nc1nc(-c2ccccc2)c(N=Nc2ccc([N+](=O)[O-])cc2Cl)s1	82
COc1ccc(C(=O)/C=C/c2ccccc2Br)cc1S(N)(=O)=O	69.8
CN1CCc2c(sc3ncnc(N/N=C/c4ccc(Cl)cc4Cl)c23)C1	0.686
O=C(Cn1c(/C=C/c2cccc([N+](=O)[O-])c2)nc2ccccc2c1=O)Nc1ccccc1	49.4
N=C1N=C(SCc2nc3ccccc3[nH]2)NC(=O)/C1=C/c1ccc(Cl)cc1	111

Value (growth, SK-OV-3 ovarian) for record N/C(=N\N=C\c1ccc([N+](=O)[O-])cc1)c1c(N)nc(=S)[nH]c1-c1ccc(Cl)cc1Cl = 89.1

Value (growth, SK-OV-3 ovarian) for record COc1cc2oc(-c3cccc(C(=O)Nc4ccc(Cl)cc4)c3)cc(=O)c2c(OCC(=O)N[C@@H](Cc2ccccc2)C(=O)O)c1OC = 138

Value (growth, SK-OV-3 ovarian) for record CCOC(=O)C1=C(N)N(c2ccccc2)C2=C(C(=O)CC(C)(C)C2)C1c1ccccc1Cl (stereo unspecified) = 90.1

Value (growth, SK-OV-3 ovarian) for record COc1ccc(-c2ccnc(SCc3cc4ccccc4[nH]c3=O)n2)cc1OC = -69.7

Value (growth, SK-OV-3 ovarian) for record O=C(COc1ccc(NC(=O)Nc2ccc(Cl)c(Cl)c2)cc1)N=Nc1c(O)[nH]c2ccc([N+](=O)[O-])cc12 = 95.2

Value (growth, SK-OV-3 ovarian) for record N#Cc1c(-c2ccc(Cl)cc2)nc2n[nH]c(-c3ccc(Cl)cc3)c2c1-c1ccc(C(F)(F)F)cc1 = 3.06
